# credit: patent US9353090B2

Molecular target: human soluble guanylate cyclase alpha 1 and beta 1 subunits (sGC) (Homo sapiens (Human), UniProt Q02108+Q02153)
Sequence (Q02108 whole entry partner): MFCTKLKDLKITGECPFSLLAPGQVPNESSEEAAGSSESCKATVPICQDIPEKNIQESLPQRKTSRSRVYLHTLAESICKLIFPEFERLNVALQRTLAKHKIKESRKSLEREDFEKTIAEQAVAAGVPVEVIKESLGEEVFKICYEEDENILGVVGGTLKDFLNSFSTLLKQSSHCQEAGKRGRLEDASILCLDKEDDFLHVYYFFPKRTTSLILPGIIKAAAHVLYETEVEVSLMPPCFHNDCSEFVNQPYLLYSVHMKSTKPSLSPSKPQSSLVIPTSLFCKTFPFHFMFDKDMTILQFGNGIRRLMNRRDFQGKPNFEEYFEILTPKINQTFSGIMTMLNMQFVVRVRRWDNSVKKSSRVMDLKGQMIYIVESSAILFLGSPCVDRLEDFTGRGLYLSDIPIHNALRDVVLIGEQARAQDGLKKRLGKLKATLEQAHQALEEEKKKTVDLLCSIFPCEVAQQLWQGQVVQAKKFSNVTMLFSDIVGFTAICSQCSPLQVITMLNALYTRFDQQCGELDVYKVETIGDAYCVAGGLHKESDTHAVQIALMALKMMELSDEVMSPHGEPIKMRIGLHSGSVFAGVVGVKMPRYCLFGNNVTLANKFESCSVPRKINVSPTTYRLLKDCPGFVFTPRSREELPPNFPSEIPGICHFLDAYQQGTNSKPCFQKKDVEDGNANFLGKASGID
Sequence (Q02153 whole entry): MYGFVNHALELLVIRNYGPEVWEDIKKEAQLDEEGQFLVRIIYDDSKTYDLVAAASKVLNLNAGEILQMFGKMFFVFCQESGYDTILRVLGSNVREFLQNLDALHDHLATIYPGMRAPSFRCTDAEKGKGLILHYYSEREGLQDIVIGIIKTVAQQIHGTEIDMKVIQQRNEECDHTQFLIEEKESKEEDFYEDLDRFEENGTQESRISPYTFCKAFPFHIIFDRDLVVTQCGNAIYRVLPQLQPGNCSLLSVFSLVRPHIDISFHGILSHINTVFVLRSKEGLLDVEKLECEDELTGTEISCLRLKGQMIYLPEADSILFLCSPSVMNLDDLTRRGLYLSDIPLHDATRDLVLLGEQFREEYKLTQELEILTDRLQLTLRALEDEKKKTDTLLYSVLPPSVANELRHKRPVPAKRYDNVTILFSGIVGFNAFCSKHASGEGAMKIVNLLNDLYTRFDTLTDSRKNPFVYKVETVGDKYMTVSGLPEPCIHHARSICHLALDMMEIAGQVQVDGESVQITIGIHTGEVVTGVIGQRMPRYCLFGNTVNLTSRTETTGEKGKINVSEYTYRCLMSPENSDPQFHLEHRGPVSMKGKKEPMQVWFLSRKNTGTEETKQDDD
Assay: sGC cellular activator assay (cGMP, HTRF), in the presence and absence of 50% human serum
Details: CHO cells stably expressing human sGC alpha 1/beta 1, preincubated with 40 microM ODQ; cGMP by HTRF; Table 2 does not state whether with or without 50% human serum
pEC50: −log10 of the molar value.
Recorded pEC50 determines the label; the label ranges are bucket A (below 7), bucket B (7 to below 8), bucket C (8 or more)

Examples with answers:
| COMPOUND | DISCRETE LABEL |
| --- | --- |
| Cc1cc(COc2c(C)cccc2-c2csc(N3CC[C@@]4(C(=O)O)C[C@H]4C3)n2)cc2c1CN(C1CCOC1)CC2 (stereo partly shown) | bucket C |
| CO[C@H]1CN(c2cccc(-c3cccc(C)c3OCc3ccc4c(c3C)CCN(C3CCOCC3)CC4)n2)CC[C@@H]1C(=O)O | bucket A |
| COc1cc(COc2c(C)cccc2-c2csc(N3CC[C@@H](C(=O)O)[C@@H](OC)C3)n2)cc2c1CN([C@H]1CCOC1)CC2 | bucket B |

For Cc1c(COc2ccccc2-c2cccc(N3CC[C@@]4(C(=O)O)C[C@H]4C3)n2)ccc2c1CCN(CC1COCCO1)C2 (stereo partly shown) , which pEC50 bin applies?
bucket C

For "CCO[C@H]1CN(c2nc(-c3cc(C)ccc3OCc3cc4c(c(OC)c3)CN(C3CCOCC3)CC4)cs2)CC[C@H]1C(=O)O" , which pEC50 bin applies?
bucket A

For CO[C@@H]1CN(c2cccc(-c3cc(C)ccc3OCc3cc(C)c4c(c3)CCN(C3CCOC3)C4)n2)CC[C@@H]1C(=O)O (stereo partly shown) [Compound 78] , which pEC50 bin applies?
bucket B

For "Cc1cc(COc2c(C)cccc2-c2cccc(N3CC[C@@]4(C(=O)O)C[C@H]4C3)n2)cc2c1CN(C1CCOCC1)CC2" , which pEC50 bin applies?
bucket C

For "Cc1cccc(-c2csc(N3C[C@@H]4C[C@]4(C(=O)O)C3)n2)c1OCc1cc(C#N)c2c(c1)CCN(C1CCOCC1)C2" , which pEC50 bin applies?
bucket B

For "Cc1cccc(-c2csc(N3C[C@@H]4C[C@]4(C(=O)O)C3)n2)c1OCc1cc(C#N)c2c(c1)CCN(C1COC1)C2" , which pEC50 bin applies?
bucket B

For "COC[C@H]1N(c2cccc(-c3cc(C)ccc3OCc3cc(C)c4c(c3)CCN(C3CCOCC3)C4)n2)C[C@@H]2C[C@@]21C(=O)O" , which pEC50 bin applies?
bucket A

====

Assay: physchem
Settings: pH 4.5, aqueous buffer, kinetic from dmso stock, Solubility (pH 4.5)
READOUT NAME: solubility at 24 h (mg/mL)
Enter your answer as a number in mg/mL; do not include the unit.

| COMPOUND | READOUT NAME | RESULT UNIT | ENDPOINT VALUE |
| --- | --- | --- | --- |
| CO[C@H]1CN(c2cccc(-c3cccc(C)c3OCc3ccc4c(c3C)CCN(C3COC3)CC4)n2)CC[C@H]1C(=O)O | solubility at 24 h | mg/mL | 0.0996 |

The measured solubility at 24 h associated with "COc1cc(COc2c(Cl)cccc2-c2cccc(N3CC[C@@H](C(=O)O)[C@@H](OC)C3)n2)cc2c1CN(C1CCOCC1)CC2" reads 0.0907

The measured solubility at 24 h associated with Cc1ccc(OCc2cc(C)c3c(c2C)CCN(C2CCCOC2)C3)c(-c2csc(N3CC[C@@]4(C(=O)O)C[C@H]4C3)n2)c1 (stereo partly drawn) reads 0.0063

The measured solubility at 24 h associated with "Cc1cccc(-c2csc(N3C[C@@H]4C[C@]4(C(=O)O)C3)n2)c1OCc1ccc2c(c1C)CCN(C1COC1)CC2" reads 0.07

The measured solubility at 24 h associated with "Cc1ccc(OCc2ccc3c(c2)CCN(C2COC2)C3)c(-c2cccc(N3CC[C@@]4(C(=O)O)C[C@H]4C3)n2)c1" reads 0.083

The measured solubility at 24 h associated with "COC[C@H]1N(c2cccc(-c3cccc(C)c3OCc3ccc4c(c3C)CCN(C3CCOCC3)C4)n2)C[C@@H]2C[C@@]21C(=O)O" reads 0.096

The measured solubility at 24 h associated with "Cc1cccc(-c2csc(N3C[C@@H]4C[C@]4(C(=O)O)C3)n2)c1OCc1ccc2c(c1C)CCN(C1CCOCC1)CC2" reads 0.074

The measured solubility at 24 h associated with "CO[C@@H]1CN(c2cccc(-c3cccc(C)c3OCc3ccc4c(c3C)CCN([C@@H]3CCOC3)CC4)n2)CC[C@@H]1C(=O)O" reads 0.112

The measured solubility at 24 h associated with "CO[C@@H]1CN(c2cccc(-c3cccc(C)c3OCc3ccc4c(c3C)CCN(C3CCOCC3)CC4)n2)CC[C@H]1C(=O)O" reads 0.0937

====

Biological target: human soluble guanylate cyclase alpha 1 and beta 1 subunits (sGC) (Homo sapiens (Human), UniProt Q02108+Q02153)
Assay: sGC cellular activator assay (cGMP, HTRF), in the presence and absence of 50% human serum
Details: CHO cells stably expressing human sGC alpha 1/beta 1, preincubated with 40 microM ODQ; cGMP by HTRF; Table 2 does not state whether with or without 50% human serum
Method: The sGC cellular activator assay is performed in the presence and absence of 50% human serum (HS) using Chinese hamster ovary cells that have been stably transfected to express the human soluble guanylate cyclase alpha 1 and beta 1 subunits (sGC). […] Diluted compounds are added to cells and they are incubated at room temperature for thirty min. cGMP is measured using a CisBio homogeneous time resolved fluorescence kit and the EC50 is calculated for each compound. […]
The following compounds are listed with their measured pEC50 values.
# pEC50 = -log10(concentration in molar units)

# count of solved cases: 3
| COMPOUND | pEC50 |
| --- | --- |
| COC[C@H]1N(c2cccc(-c3cccc(C)c3OCc3cc(C)c4c(c3C)CCN(C3CCOCC3)C4)n2)C[C@@H]2C[C@@]21C(=O)O | 8.00 |
| CO[C@H]1CN(c2nc(-c3cccc(C)c3OCc3cc(F)c4c(c3)CCN(C3CCOCC3)C4)cs2)CC[C@H]1C(=O)O | 8.15 |
| Cc1ccc(OCc2ccc3c(c2C)CCN(C2CCOCC2)C3=O)c(-c2cccc(N3CC[C@@]4(C(=O)O)C[C@H]4C3)n2)c1 | 8.05 |

The measured pEC50 associated with "Cc1ccc(OCc2cc(C)c3c(c2)CCN(C2COC2)C3)c(-c2cccc(N3C[C@@H]4C[C@]4(C(=O)O)C3)n2)c1" reads 6.45

The measured pEC50 associated with "O=C(O)[C@@]12CCN(c3nc(-c4ccccc4OCc4ccc5c(c4)CCN(C4CCOCC4)C5)cs3)C[C@@H]1C2" reads 8.00

The measured pEC50 associated with "Cc1cc(CN2CCc3c(ccc(COc4ccccc4-c4cccc(N5CC[C@@]6(C(=O)O)C[C@H]6C5)n4)c3C)C2)no1" reads 8.52

The measured pEC50 associated with "CO[C@H]1CN(c2nc(-c3cccc(C)c3OCc3ccc4c(c3)[C@H](C)CN(C3CCOCC3)CC4)cs2)CC[C@H]1C(=O)O" reads 8.15

The measured pEC50 associated with "CCc1cc(COc2ccc(C)cc2-c2cccc(N3CC[C@H](C(=O)O)[C@H](OC)C3)n2)cc2c1CN(C1CCOCC1)CC2" reads 7.60

The measured pEC50 associated with "CCO[C@@H]1CN(c2nc(-c3cccc(C)c3OCc3cc(OC)c4c(c3F)CCN(C3CCOCC3)C4)cs2)CC[C@@H]1C(=O)O" reads 8.70

====

Experiment: physchem
Conditions: pH 2.2, aqueous buffer, kinetic from dmso stock, Solubility (pH 2.2)
The following compounds are listed with their measured solubility at 24 h values.
Enter your answer as a number in µg/mL; do not include the unit.

| STRUCTURE NOTATION | solubility at 24 h [µg/mL] |
| --- | --- |
| Cc1cc(COc2c(C)cccc2-c2ccnc(N3C[C@@H]4C[C@]4(C(=O)O)C3)n2)cc2c1CN(C1CCOCC1)CC2 | 99 |

The measured solubility at 24 h associated with "Cc1ccc(OCc2ccc3c(c2C)CCN(C2CCOCC2)C3=O)c(-c2cccc(N3CC[C@@]4(C(=O)O)C[C@H]4C3)n2)c1" reads 84

The measured solubility at 24 h associated with "Cc1cc(COc2c(C)cccc2-c2cccc(N3C[C@@H]4C[C@]4(C(=O)O)C3)n2)cc2c1CN(C1CCOCC1)CC2" reads 110

The measured solubility at 24 h associated with "COC[C@H]1N(c2cccc(-c3cccc(C)c3OCc3ccc4c(c3F)CCN(C3COC3)CC4)n2)C[C@@H]2C[C@@]21C(=O)O" reads 122
